test system: PANC-1; experiment: Cytotoxicity against human PANC1 cells transfected with retroviral expression vector pMSCV-LucSh assessed as growth inhibition at 50 uM after 72 hrs by MTS assay; format: functional, cell-based
Activity calls are given as the source filed them. No cut-off for these calls is given here.
Returns: one label drawn from y (active), n (inactive)

Study these solved cases before continuing.
[
  {
    "Structure": "CCCCCCCCCCN(CCN(C)C)c1ccccn1",
    "Category": "y"
  },
  {
    "Structure": "CCCCCCN(CCN(C)C)c1ccccc1",
    "Category": "n"
  },
  {
    "Structure": "CN(C)CCN(Cc1ccc(Cl)cc1)c1ccc2ccccc2n1",
    "Category": "y"
  },
  {
    "Structure": "CCCCCCCCCCCCN(CCN(C)C)c1ccccn1",
    "Category": "y"
  }
]

Field: outcome | Entry: `CCCN(CCN(C)C)c1ccccn1`
n

Field: outcome | Entry: `CN(C)CCNc1ccccn1`
n

Field: outcome | Entry: `CCCCCCCCN(CCN(C)C)c1ccccn1`
y

----------
tested on: MDA-MB-231; test: Cytotoxicity against human MDA-MB-231 cells assessed as growth inhibition at 50 uM after 72 hrs by MTS assay; assay type: functional, cell-based
The source made the active and inactive calls. The calls are words filed in the database; no cut-off is given here.
Returns: one label drawn from active, inactive

[
  {
    "Structure": "CCCN(CCN(C)C)c1ccccn1",
    "Category": "inactive"
  },
  {
    "Structure": "CCCCCCN(CCN(C)C)c1ccccc1",
    "Category": "inactive"
  },
  {
    "Structure": "CCCCCCCCCCCCN(CCN(C)C)c1ccccn1",
    "Category": "active"
  },
  {
    "Structure": "CCCCCCCCN(CCN(C)C)c1ccccn1",
    "Category": "active"
  },
  {
    "Structure": "CCCCCCCCCCN(CCN(C)C)c1ccccn1",
    "Category": "active"
  }
]

Consider now this further molecule.
Field: outcome | Entry: `CN(C)CCNc1ccccn1`
inactive

----------
Where a name gives a salt, the structure may show the parent alone.
For Focal adhesion kinase 1 (Homo sapiens), measured pKd is reported for the entries below.
By convention, pKd is the negative base-10 log of a molar concentration.

[
  {
    "Compound": "CN(C)CCN(Cc1ccc(Cl)cc1)c1ccc2ccccc2n1",
    "System Tested": "Focal adhesion kinase 1 (Homo sapiens)",
    "pKd": 7.74
  }
]

Could you now look at the following compound, please?
Lab request: please report pKd under test system Focal adhesion kinase 1 (Homo sapiens) for CN(C)CCN(Cc1ccc(Cl)cc1)c1ccccn1 [CHLORPYRAMIN HYDROCHLORIDE]
6.24

----------
system: A-375; test: Cytotoxicity against human A375 cells assessed as growth inhibition at 50 uM after 72 hrs by MTS assay; assay type: functional, cell-based
Active and inactive are the calls of the source. No cut-off for these calls is given here.
Returns: one label drawn from class 1 for active, class 0 for inactive

Study these solved cases before continuing.
[
  {
    "Structure": "CCCCCCCCCCCCN(CCN(C)C)c1ccccn1",
    "Category": "class 1"
  },
  {
    "Structure": "CCCCCCN(CCN(C)C)c1ccccc1",
    "Category": "class 0"
  },
  {
    "Structure": "CCCN(CCN(C)C)c1ccccn1",
    "Category": "class 0"
  }
]

Field: outcome | Entry: `CCCCCCCCCCN(CCN(C)C)c1ccccn1`
class 1

Field: outcome | Entry: `CN(C)CCNc1ccccn1`
class 0

Field: outcome | Entry: `CCCCCCCCN(CCN(C)C)c1ccccn1`
class 1
